Where these numbers come from: ChEMBL document CHEMBL2169773

# key: entry, value: IC50
target: Prostaglandin E synthase (Homo sapiens, UniProt O14684); experiment: Inhibition of mPGES-1 in human IL-1beta-stimulated A549 cell microsomes assessed as inhibition of PGE2 formation from PGH2 after 15 mins by RP-HPLC analysis; set-up: species or system Microsome; conditions: read-out: IC50
Sequence (O14684 whole entry): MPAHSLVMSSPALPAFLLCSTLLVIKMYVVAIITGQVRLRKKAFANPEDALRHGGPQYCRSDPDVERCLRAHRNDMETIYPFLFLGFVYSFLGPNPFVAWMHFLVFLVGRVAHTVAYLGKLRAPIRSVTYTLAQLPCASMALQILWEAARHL
Numeric only. Scale: nM

Cc1c(CC(=O)O)c2cc(C#Cc3ccccc3)ccc2n1Cc1ccc(Cl)cc1    2500

Could you tell me which IC50 is on file for O=C(Cc1cn(-c2ccccc2)nc1-c1ccc(Cl)cc1)NS(=O)(=O)c1ccc(Cl)cc1 ? 2300

Could you tell me which IC50 is on file for O=C(O)Cc1cn(-c2ccccc2)nc1-c1ccc(C#Cc2ccc(Cl)cc2)cc1 ? 160

Could you tell me which IC50 is on file for Cc1ccc(S(=O)(=O)NC(=O)Cc2cn(-c3ccccc3)nc2-c2ccc(Cl)cc2)cc1 ? 3400

Could you tell me which IC50 is on file for Cc1ccc(S(=O)(=O)NC(=O)Cc2cn(-c3ccccc3)nc2-c2ccc(-c3ccccc3)cc2)cc1 ? 1700

Could you tell me which IC50 is on file for Cc1ccc(S(=O)(=O)NC(=O)Cc2c(C)n(Cc3ccc(Cl)cc3)c3ccc(Br)cc23)cc1 ? 1750

Could you tell me which IC50 is on file for COc1ccc2c(c1)c(CC(=O)O)c(C)n2C(=O)c1ccc(Cl)cc1 ? 40600

Could you tell me which IC50 is on file for Cc1c(CC(=O)NS(=O)(=O)c2ccc(Cl)cc2)c2cc(C#Cc3ccccc3)ccc2n1Cc1ccc(Cl)cc1 ? 1800

Could you tell me which IC50 is on file for Cc1ccc(S(=O)(=O)NC(=O)Cc2c(C)n(Cc3ccc(Cl)cc3)c3ccc(C#Cc4ccccc4)cc23)cc1 ? 2800

Could you tell me which IC50 is on file for O=C(Cc1cn(-c2ccccc2)nc1-c1ccc(C#Cc2cccc(Cl)c2)cc1)NS(=O)(=O)c1ccc(Cl)cc1 ? 800

Could you tell me which IC50 is on file for O=C(O)Cc1cn(-c2ccccc2)nc1-c1ccc(C#Cc2ccccc2)cc1 ? 400

Could you tell me which IC50 is on file for COc1ccc2c(c1)c(CC(=O)NS(=O)(=O)c1ccc(C)cc1)c(C)n2C(=O)c1ccc(Cl)cc1 ? 6400

Could you tell me which IC50 is on file for O=C(Cc1cn(-c2ccccc2)nc1-c1ccc(Cl)cc1)NS(=O)(=O)c1ccccc1 ? 5900

Could you tell me which IC50 is on file for O=C(O)Cc1cn(-c2ccccc2)nc1-c1ccc(Cl)cc1 ? 45000

Could you tell me which IC50 is on file for O=C(Cc1cn(-c2ccccc2)nc1-c1ccc(C#Cc2ccc(Cl)cc2)cc1)NS(=O)(=O)c1ccc(Cl)cc1 ? 350

Could you tell me which IC50 is on file for O=C(O)Cc1cn(-c2ccccc2)nc1-c1ccc(C#Cc2cccc(Cl)c2)cc1 ? 180

Could you tell me which IC50 is on file for O=C(Cc1cn(-c2ccccc2)nc1-c1ccc(C#Cc2ccccc2)cc1)NS(=O)(=O)c1ccc(Cl)cc1 ? 200

====

Biological target: Polyunsaturated fatty acid 5-lipoxygenase (Homo sapiens) (UniProt P09917)
Sequence (whole entry): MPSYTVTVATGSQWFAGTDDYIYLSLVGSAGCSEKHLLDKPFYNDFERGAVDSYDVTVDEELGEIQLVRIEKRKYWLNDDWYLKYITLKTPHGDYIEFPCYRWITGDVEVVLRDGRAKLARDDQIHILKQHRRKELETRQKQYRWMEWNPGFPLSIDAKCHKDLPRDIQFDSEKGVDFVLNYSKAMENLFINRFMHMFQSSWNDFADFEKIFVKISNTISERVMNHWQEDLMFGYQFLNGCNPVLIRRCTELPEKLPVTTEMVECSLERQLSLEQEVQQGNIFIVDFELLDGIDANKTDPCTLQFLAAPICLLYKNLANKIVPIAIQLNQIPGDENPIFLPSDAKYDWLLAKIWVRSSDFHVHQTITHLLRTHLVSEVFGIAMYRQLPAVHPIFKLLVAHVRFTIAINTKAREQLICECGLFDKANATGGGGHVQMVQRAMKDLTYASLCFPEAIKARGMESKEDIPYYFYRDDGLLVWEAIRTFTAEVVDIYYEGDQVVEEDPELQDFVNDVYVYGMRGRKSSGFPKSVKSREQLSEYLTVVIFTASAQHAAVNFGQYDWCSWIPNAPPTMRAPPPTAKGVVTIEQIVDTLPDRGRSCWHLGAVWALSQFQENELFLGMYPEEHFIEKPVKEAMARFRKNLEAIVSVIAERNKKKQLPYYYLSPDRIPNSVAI
Test: Inhibition of 5-lipoxygenase in A23187-stimulated human neutrophils assessed as remaining activity measuring enzyme product formation at 10 uM by RP-HPLC analysis relative to vehicle-treated control
# key: entry, value: Activity
Numeric only. Scale: %

API: value(readout= Activity, system= Polyunsaturated fatty acid 5-lipoxygenase (Homo sapiens) (UniProt P09917), query= COc1ccc2c(c1)c(CC(=O)NS(C)(=O)=O)c(C)n2C(=O)c1ccc(Cl)cc1 ) 64.9
